Target: Hexokinase-4 (Homo sapiens) + Glucokinase regulatory protein (Homo sapiens) (UniProt P35557+Q14397)
Sequence (P35557 whole entry, looked up): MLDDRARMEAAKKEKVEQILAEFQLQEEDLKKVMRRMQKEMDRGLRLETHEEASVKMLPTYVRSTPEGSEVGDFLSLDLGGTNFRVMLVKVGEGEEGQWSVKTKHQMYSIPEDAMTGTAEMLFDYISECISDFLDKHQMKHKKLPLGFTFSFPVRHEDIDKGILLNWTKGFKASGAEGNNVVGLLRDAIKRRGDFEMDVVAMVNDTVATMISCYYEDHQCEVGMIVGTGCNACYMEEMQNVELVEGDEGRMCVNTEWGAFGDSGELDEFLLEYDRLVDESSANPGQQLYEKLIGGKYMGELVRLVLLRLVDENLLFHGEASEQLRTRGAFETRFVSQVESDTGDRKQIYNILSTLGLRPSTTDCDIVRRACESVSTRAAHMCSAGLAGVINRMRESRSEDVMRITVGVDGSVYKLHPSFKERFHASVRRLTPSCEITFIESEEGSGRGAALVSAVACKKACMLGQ
Sequence (Q14397 whole entry, looked up): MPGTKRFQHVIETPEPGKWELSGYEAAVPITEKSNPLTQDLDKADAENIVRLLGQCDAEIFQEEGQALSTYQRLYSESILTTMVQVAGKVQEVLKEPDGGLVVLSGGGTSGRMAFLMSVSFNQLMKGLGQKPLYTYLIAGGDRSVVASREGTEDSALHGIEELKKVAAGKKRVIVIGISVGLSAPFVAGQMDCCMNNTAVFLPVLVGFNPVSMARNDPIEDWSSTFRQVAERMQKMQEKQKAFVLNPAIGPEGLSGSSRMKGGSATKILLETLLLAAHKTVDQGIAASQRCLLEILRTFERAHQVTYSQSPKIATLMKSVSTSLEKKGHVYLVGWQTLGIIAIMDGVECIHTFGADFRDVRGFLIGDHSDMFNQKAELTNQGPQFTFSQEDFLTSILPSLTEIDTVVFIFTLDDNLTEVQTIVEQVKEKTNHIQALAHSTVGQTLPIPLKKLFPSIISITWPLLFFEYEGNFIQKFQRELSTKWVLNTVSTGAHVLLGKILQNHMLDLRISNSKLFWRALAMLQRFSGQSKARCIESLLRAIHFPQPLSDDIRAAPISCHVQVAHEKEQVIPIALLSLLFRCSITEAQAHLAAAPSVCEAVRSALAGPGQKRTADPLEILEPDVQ
Assay: qHTS assay for inhibitors of recombinant human GCK-GKRP interaction: HTRF assay (AID 743207);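 further: 0% = DMSO with GCK present and -100% = DMSO wells lacking GCK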
Conditions: recombinant GCK-GKRP HTRF binding, 60 min, with sorbitol-6-phosphate; series mostly up to 57.5 µM
Active and inactive are the calls of the source. The call rests on the fitted dose curve; in most records, active means well fitted curve in the direction sought with a large enough effect; inconclusive means small, poorly fitted or top-dose-only effect, or another doubt; inactive means no such curve, though single readings can be large or run the other way.
measured_quantity: outcome

- CC(C)(C)c1ccc(/C=C/C(=O)Nc2ccc3c(c2)OCCO3)cc1: inactive
- O=C(O)CCC(=O)N1CCCC1C(=O)O (stereo unspecified): inactive
- CC(C)[C@@H]1CC[C@@H](C)C[C@@H]1P(=O)(c1ccccc1)c1ccccc1: inactive
- Cc1cc(Cn2cnc3c2C[C@@H](C(=O)O)N(C(=O)C(c2ccccc2)c2ccccc2)C3)ccc1N: inactive
- COC1(C2=NCCN2)COc2ccccc2O1 (stereo unspecified): inactive
- CNc1cc(NS(=O)(=O)c2ccc(N)cc2)nc(NC)n1: inactive

---

Experiment: NS1 protein of Zika virus - qHTS assay to identify small molecule inhibitors in human HEK 293 cells (AID 1347053); further: nearly all actives have a fitted effect of over 55% in size
Conditions: HEK293 ZIKV MR766 infection, NS1 TR-FRET, 24 h; series mostly up to 46.1 µM
Inconclusive results are not listed. Active and inactive are the calls of the source. The call rests on the fitted dose curve; in most records, active means well fitted inhibition curve with a large enough effect; inconclusive means small, poorly fitted or top-dose-only effect; inactive means no such curve, though single readings can be large or run the other way.
Outcomes: active, inactive

• C=CCn1c(=O)c2c(nc(-c3ccc(S(=O)(=O)O)cc3)n2C)n(C)c1=O = inactive
• O=c1cc(O)cc(/C=C/c2ccc(O)c(O)c2)o1 = inactive
• Cc1cccc(C)c1OCC(N)C(C)C (stereo unspecified) = inactive
• CN1C2CCC1CC(OC(c1ccccc1)c1ccccc1)C2 (stereo unspecified) = inactive
• S=C(S)N1CCCC1 = active
• Nc1nc2c(nc(Br)n2C2OC3COP(=O)(O)O[C@@H]3C2O)c(=O)[nH]1 (stereo partly specified) = inactive
• CC(N)(C(=O)O)c1ccc(C(=O)O)cc1 (stereo unspecified) = inactive
• CCCn1c(=O)c(C)cn2nc(N)nc12 = inactive
• CC(=O)O[C@H]1Cc2ccccc2N(C(N)=O)c2ccccc21 = inactive
• NC(=O)c1cc[n+](CC2=C(C(=O)O)N3C(=O)[C@@H](NC(=O)[C@@H](c4ccccc4)S(=O)(=O)[O-])[C@H]3SC2)cc1 = inactive
• CC(C)NC[C@H](O)COc1ccc(CC(N)=O)cc1 = inactive
• N#C/C(=C\c1ccc(O)c(O)c1)C(=O)NCCc1ccccc1 = inactive
• CCCCCCC(=O)OC1CC(C)(C)NC(C)(C)C1 = inactive
• CCn1c(=O)[nH]c2cc(Cl)c(Cl)cc21 = inactive
• COc1ccc(CCN(C)CCc2ccc(OC)c(OC)c2)cc1OC = inactive
• Nc1ccc2c3c(cccc13)C(=O)NC2=O = inactive
• C[C@@]1(C2CCCC2)Cc2cc(OCC(=O)O)c(Cl)c(Cl)c2C1=O = inactive
• C[C@H](O)C(=O)C1=Nc2c(nc(N)[nH]c2=O)NC1 = inactive
• CC(=O)/C(C)=N/O = inactive
• CC(=O)NNC(=O)N1Cc2ccccc2Oc2ccc(Cl)cc21 = inactive
• O=c1[nH]c(=O)c2nc3ccccc3nc2[nH]1 = inactive
• Cc1cccc(C2CN(C)CCc3c2cc(O)c(O)c3Cl)c1 (stereo unspecified) = inactive
• Nc1ncnc2c1c(-c1ccc(Oc3ccccc3)cc1)cn2C1CCCC1 = inactive
• NC1(C(=O)O)CC1 = inactive
• OC[C@H]1O[C@@H](n2cnc3cncnc32)[C@H](O)[C@@H]1O = inactive
• Nc1ncnc2c1nc(Br)n2C1OC2COP(=O)(O)O[C@@H]2C1O (stereo partly specified) = inactive
• N[C@H]1CONC1=O = inactive
• NC(=O)CC[C@H](N)C(=O)O = inactive
• CC(C)Cn1c(=O)n(C)c(=O)c2[nH]cnc21 = inactive
• CC[C@@H]1Cc2cc(O)ccc2C2=C1c1ccc(O)cc1C[C@H]2CC = inactive
• CC#CCOC(=O)c1c(C)nc2sc3c(c2c1N)CCC(O)C3 (stereo unspecified) = inactive
• C=CCN1CCc2cc(O)c(O)cc2C(c2ccccc2)C1 (stereo unspecified) = inactive
• CC(=O)[C@H]1CCC2C3CC=C4C[C@@H](OS(=O)(=O)O)CC[C@]4(C)C3CC[C@@]21C (stereo partly specified) = inactive
• COc1ccc2c(c1)c(CC(=O)O)c(C)n2C(=O)c1ccccc1 = inactive
• NCCCCN = inactive
• CN1CCc2cc(Cl)c(O)cc2[C@@H](c2ccccc2)C1 = inactive
• COc1cc(/C=C(\C#N)C(=O)c2ccc(O)c(O)c2)cc(I)c1O = inactive
• Cc1ccc2c(c1)C(N1CCN(C)CC1)=Nc1cccnc1N2 = inactive
• Clc1nccc2c1ccc1ccccc12 = inactive
• NC1(C(=O)O)CCCCC1 = inactive
• CCCn1c(=O)c2[nH]c(C3CCCC3)nc2n(CCC)c1=O = inactive
• Nc1ncnc2c1ncn2C1CCCO1 (stereo unspecified) = inactive
• CCSC(=N)N = inactive
• COc1cc(C(O)C(=O)O)ccc1O (stereo unspecified) = inactive
• Nc1ccc(-c2nc3ccc(-c4nc5ccc(N)cc5[nH]4)cc3[nH]2)cc1 = inactive
• Cc1ccc([N+](=O)[O-])cc1S(=O)(=O)N(C)C = inactive
• O=C(O)c1cccnc1C(=O)O = inactive
• N[C@@H](Cc1ccc(O)c(I)c1)C(=O)O = inactive
• Cc1nc2n(c(=O)c1CCN1CCC(c3noc4cc(F)ccc34)CC1)CCCC2O (stereo unspecified) = inactive
• CC[N+](CC)(CC)CC(=O)Nc1c(C)cccc1C = inactive
• Nc1ccc(N2C(=O)c3ccccc3C2=O)c(Cl)c1 = inactive

---

Experiment: HTS Assay for Allosteric Antagonists of the Human D2 Dopamine Receptor: Hit Validation in HTRF (AID 624455);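 further: stable D1 dopamine receptor cell line scored for blocking the D1 response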
Details: Cells stably expressing D1 dopamine receptor, inhibition mode; series mostly up to 46.1 µM
Inconclusive results are not listed. Active and inactive are the calls of the source. The call rests on the fitted dose curve; in most records, active means well fitted inhibition curve with a large enough effect; inconclusive means small, poorly fitted or top-dose-only effect; inactive means no such curve, though single readings can be large or run the other way.
Outcomes: Yes = active, No = inactive

• CN(CC[C@@H](Oc1ccc(C(F)(F)F)cc1)c1ccccc1)CC(=O)O = No
• Oc1cc(O)c2c(c1)O[C@H](c1ccc(O)c(O)c1)[C@@H](O)C2 = No
• O=C(O)c1cccnc1C(=O)O = No
• Cc1nc2c(OCc3ccccc3)cccn2c1CC#N = No
• COc1cccc(OC)c1OCCNCC1CSc2ccccc2O1 (centres undefined) = Yes
• C=CC[C@H](N)C(=O)O = No
• CCCCCCCCCCCCCCC[C@H](O)[C@H](N)CO = No
• N#Cc1cc2nc(O)c(O)nc2cc1[N+](=O)[O-] = No
• CCCCCCCC/C=C\CCCCCCCC(=O)NCCc1ccc(O)c(O)c1 = Yes
• NC(=O)CNCCC(c1ccccc1)c1ccccc1 = No
• CC(C)(C)c1cc(/C=C(\C#N)C(N)=S)cc(C(C)(C)C)c1O = No
• COc1ccccc1N1CCN(CCN(C(=O)c2ccc(F)cc2)c2ccccn2)CC1 = No
• CN(C)C(=O)/N=N/C(=O)N(C)C = No
• CC(C)(C)c1ccc(/C=C/C(=O)Nc2ccc3c(c2)OCCO3)cc1 = No

---

System: DIV14
Assay: qHTS profiling for inhibitors of Plasmodium falciparum proliferation (AID 504749); further: nearly all actives have a fitted effect of over 60% in size
Conditions: P. falciparum in erythrocytes, SYBR Green DNA, 72 h; series mostly up to 28.7 µM
Results filed as inconclusive are left out. Active and inactive are the calls of the source. Calls come from the whole dose curve; as a rule, active = well fitted inhibition curve with a large enough effect; inconclusive = small, poorly fitted or top-dose-only effect; inactive = flat fitted curve, though single readings scatter.
Outcomes: 1 (yes) for active, 0 (no) for inactive

* CCCCCCCCCCCCCCC[C@H](O)[C@H](N)CO | 0 (no)
* c1ccc(C2CN3CCSC3=N2)cc1 (stereo not given) | 1 (yes)
* CC(O)C(O)[C@H]1CNc2nc(N)[nH]c(=O)c2N1 (stereo not given in full) | 0 (no)
* CC(C)NC[C@H](O)COc1ccc(CC(N)=O)cc1 | 0 (no)
* CCCCCCCCCCCCCCCCCCOC[C@H](COP(=O)([O-])OCC[N+](C)(C)C)OC | 0 (no)

---

Experiment: qHTS for differential inhibitors of proliferation of Plasmodium falciparum line HB3 (AID 1886);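 further: parasites grown with compound for 72 h before SYBR Green readout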
Settings: Plasmodium falciparum HB3 proliferation inhibition; series mostly up to 28.7 µM
Records with an inconclusive call do not appear. The source made the active and inactive calls. Calls follow the shape of the dose curve; as a rule, active = well fitted curve in the direction sought with a large enough effect; inconclusive = small, poorly fitted or top-dose-only effect, or another doubt; inactive = no such curve, though single readings can be large or run the other way.
Outcomes: active, inactive

* NS(=O)(=O)c1cccc2c1c([N+](=O)[O-])cc1nc(O)c(O)nc12 | inactive
* NC(N)=[N+]1CCc2ccccc2C1 | inactive
* O=C(O)c1cc(=O)cc(C(=O)O)[nH]1 | inactive
* CCCCOC(=O)NS(=O)(=O)c1sc(CC(C)C)cc1-c1ccc(Cn2c(CC)nc3c(C)cc(C)nc32)cc1 | active
* O=C(O)C1=CCCNC1 | inactive
* O=C(N[C@@H](Cc1ccccc1)C(=O)CCl)OCc1ccccc1 | active
* CCCCC[C@H](CC(=O)NO)C(=O)N[C@H](C(=O)N1CCC[C@H]1CO)C(C)C | active
* Cc1nc(N=Nc2ccc(C(=O)O)cc2)c(COP(=O)(O)O)c(C=O)c1O | inactive
* [Li+] | inactive
* NC(C(=O)N[C@@H]1C(=O)N2C(C(=O)O)=C(Cl)CS[C@H]12)c1ccccc1 (stereo partly drawn) | inactive
* O=c1[nH]c2cc(Cl)ccc2c(O)c1-c1ccc(Oc2ccccc2)cc1 | inactive
* Cn1c(=O)c2c(nc(/C=C/c3cccc(Cl)c3)n2C)n(C)c1=O | active
* COc1cc(C(O)CO)ccc1O (stereo not drawn) | inactive
* CCN(c1nc(N)c(C(=O)N=C(N)N)nc1Cl)C(C)C | active
* NCC(O)(CS(=O)(=O)O)c1ccc(Cl)cc1 (stereo not drawn) | inactive
* O=C(O)C1=CCNCC1 | inactive
* O=c1cc(O)cc(/C=C/c2ccc(O)c(O)c2)o1 | active
* CCC1(O)CC2CN(CCc3c([nH]c4ccccc34)[C@@](C(=O)OC)(c3cc4c(cc3OC)N(C)C3[C@]45CCN4CC=C[C@@](CC)([C@@H](OC(C)=O)[C@]3(O)C(=O)OC)[C@H]45)C2)C1 (stereo partly drawn) | active
* CN(C)S(=O)(=O)c1ccc2c(c1)/C(=C/c1cc3c([nH]1)CCCC3)C(=O)N2 | active
* COC(=O)C(N)Cc1ccc(Cl)cc1 (stereo not drawn) | inactive
* Cn1cc(C(F)(F)F)nc1-c1ccc(OCC(O)CNCCOc2ccc(O)c(C(N)=O)c2)cc1 (stereo not drawn) | active
* Nc1nc2[nH]c(=O)cnc2c(=O)[nH]1 | inactive
* N[C@H]1CONC1=O | inactive
